TARGET ENTITY: δ-opioid receptor of the mouse vas deferens (MVD) (mouse), P32300
Sequence (P32300 whole entry, stated change not applied): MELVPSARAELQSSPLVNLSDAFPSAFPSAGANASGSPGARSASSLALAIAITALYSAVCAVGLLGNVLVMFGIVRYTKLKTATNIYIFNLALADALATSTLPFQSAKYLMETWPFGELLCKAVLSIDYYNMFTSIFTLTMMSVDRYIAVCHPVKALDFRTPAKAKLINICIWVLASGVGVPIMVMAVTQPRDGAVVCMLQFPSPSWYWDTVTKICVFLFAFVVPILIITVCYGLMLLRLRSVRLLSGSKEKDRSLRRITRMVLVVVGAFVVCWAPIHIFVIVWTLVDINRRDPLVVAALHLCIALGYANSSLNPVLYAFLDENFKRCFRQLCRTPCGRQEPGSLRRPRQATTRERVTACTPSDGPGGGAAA
EXPERIMENT SUMMARY: cell-based or functional assay
Non-standard residues stand in square brackets, D forms with d. *: point of attachment. NH(1-Adamantyl) = C1C2CC3CC1CC(N*)(C2)C3; Dmt = Cc1cc(O)cc(C)c1C[C@H](N)C(=O)O; Tic = O=C(O)[C@@H]1Cc2ccccc2CN1; dTic = O=C(O)[C@H]1Cc2ccccc2CN1
List of MVD pA2 values.
// return a plain number; no unit text

Worked examples follow.
Req: Reported MVD pA2 for {N,N‑dimethyl}-[Dmt]-[Tic]-{NH(1-Adamantyl)} [N,N(Me)2-Dmt-Tic-NH-1-adamantane] : what is it?
Resp: 9.06

Req: Now this one: {N,N‑dimethyl}-[Dmt]-[dTic]-{NH(1-Adamantyl)} [N,N(Me)2-Dmt-D-Tic-NH-1-adamantane]
Resp: 6.91

Next:
Req: Reported MVD pA2 for H-[Dmt]-[Tic]-Ala-{NH(1-Adamantyl)} [H-Dmt-Tic-Ala-NH-1-adamantane] : what is it?
Resp: 9.29
